Where these numbers come from: PubChem BioAssay (Tox21)

targetDesc: Cytochrome P450 1A2 (Homo sapiens) (UniProt P05177)
Sequence (P05177 whole entry, looked up): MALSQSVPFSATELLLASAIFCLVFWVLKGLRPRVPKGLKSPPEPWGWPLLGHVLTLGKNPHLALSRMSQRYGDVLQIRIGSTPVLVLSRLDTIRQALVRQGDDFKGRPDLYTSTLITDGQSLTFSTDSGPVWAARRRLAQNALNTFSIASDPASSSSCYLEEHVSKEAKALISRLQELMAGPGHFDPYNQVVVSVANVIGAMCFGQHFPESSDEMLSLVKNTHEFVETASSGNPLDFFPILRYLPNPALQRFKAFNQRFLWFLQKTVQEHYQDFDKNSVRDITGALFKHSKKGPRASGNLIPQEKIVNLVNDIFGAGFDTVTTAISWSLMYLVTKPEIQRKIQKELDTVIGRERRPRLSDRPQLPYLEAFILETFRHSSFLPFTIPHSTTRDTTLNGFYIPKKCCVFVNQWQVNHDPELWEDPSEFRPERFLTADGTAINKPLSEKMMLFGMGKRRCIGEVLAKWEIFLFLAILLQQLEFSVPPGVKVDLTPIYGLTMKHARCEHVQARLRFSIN
testSummary: Cytochrome P450 Family 1 Subfamily A Member 2 (CYP1A2) small molecule antagonists: luciferase reporter qHTS assay (AID 1671199); further: nearly all actives have a fitted effect of over 50% in size
measurementContext: P450-Glo CYP1A2 enzyme, luciferin luminescence, 1 h; series mostly up to 115 µM
Text: National Center for Advancing Translational Sciences [NCATS] U.S. Environmental Protection Agency [EPA] National Institutes of Environmental Health Sciences [NIEHS] National Toxicology Program [NTP] U.S. Food and Drug Administration [FDA] Cytochrome P450 (CYP) enzymes are membrane-bound hemeproteins that play a key role in metabolism of drugs and xenobiotics. […] The luciferin products formed are detected with a luciferin detection reagent, and the amount of light produced is proportional to CYP activity. […]
Inconclusive results are not listed. Active and inactive are the calls of the source. The call rests on the fitted dose curve; in most records, active means well fitted inhibition curve with a large enough effect in the repeat runs; inconclusive means weak or mixed curves; inactive means no such curve, though single readings can be large or run the other way.
Can you answer with just one of these options? YES = active, NO = inactive

Lookup: Name the outcome recorded for O=C(O)CCc1nc2ccccc2[nH]1 in the assay.
Found: NO

Lookup: What do you get for CC[C@H](NC(C)C)[C@H](O)c1ccc(O)c2[nH]c(=O)ccc12 ?
Found: NO

Lookup: What do you get for Cc1cccc(C)c1NC(=O)CN1CCCC1 ?
Found: NO

Lookup: What do you get for CCCCCCCCCCCCSC#N ?
Found: YES

Lookup: What do you get for CC(C)C[C@H](NC(=O)[C@H](Cc1ccccc1)NC(=O)c1cnccn1)B(O)O ?
Found: YES

Lookup: What do you get for N#CCCCC(C#N)CCC#N (stereo not given) ?
Found: NO

Lookup: What do you get for Cc1ccc2ccccc2c1[N+](=O)[O-] ?
Found: YES

Lookup: What do you get for CC1=C(C)C(=O)C(CCCCC#CCCCC#CCO)=C(C)C1=O ?
Found: YES

Lookup: What do you get for O=C(O)c1ccc2cc(O)ccc2c1 ?
Found: NO

Lookup: What do you get for Nc1ccccc1Nc1ccccc1 ?
Found: YES

Lookup: What do you get for N#C[C@@H]1CC(F)(F)CN1C(=O)CNC1CC2CCC(C1)N2c1ncccn1 (stereo not given in full) ?
Found: NO

Lookup: What do you get for CCCCCCOC(=O)c1ccccc1 ?
Found: YES

Lookup: What do you get for CCCC(=O)OCc1ccccc1 ?
Found: NO

Lookup: What do you get for CCCCOC(=O)CC#N ?
Found: YES

Lookup: What do you get for CC(C)CC(C)(C)C ?
Found: YES
